# Tested on: Saccharomyces cerevisiae
# Experiment: protein stability index of tFT-peptide fusion (C-terminal peptide) (PSI (0-1 scale)); higher = more stable (slower turnover)
# Experimental Context: genetic background: das1 deletion; temperature: 30 C
Attribute Measured: protein stability index
A bare number is all that is needed in reply.

| Residue String | Attribute Measured | Obs Value |
| --- | --- | --- |
| VGRKPRLPKGKL [YCL002C C-terminal 12 aa] | protein stability index | 0.758 |
| LRKNRSLDERYF [YML057C-A C-terminal 12 aa] | protein stability index | 0.709 |
| DDTLERAGRIKN [FAD1 C-terminal 12 aa] | protein stability index | 0.69 |
| GIVYDFHKSDMY [LSM1 C-terminal 12 aa] | protein stability index | 0.683 |
| YTTVLSSQSSKL [PEX8 C-terminal 12 aa] | protein stability index | 0.783 |

Next item in the queue.
The sequence listed as KTDKVLYKRNGY [HPA3 C-terminal 12 aa] has a reported protein stability index of 0.687
